Exercise: for every item that follows, state its recorded MIC.
Test system: Cryptococcus neoformans
Assay: in vitro antifungal susceptibility testing (MIC, MFC; broth macrodilution), Tables 1-7
Type: cell-based
Settings: 72 h, read-out: MIC80 (Minimum inhibitory concentration 80%)

Here is how some molecules turned out for MIC.
N=C(N)c1ccc(NCCCNc2ccc(C(=N)N)cc2[N+](=O)[O-])c([N+](=O)[O-])c1	100 µg/mL
N=C(N)c1ccc(OCCCCCOc2ccc(C(=N)N)cc2)cc1 [Pentamidine, reference compound]	3.12 µg/mL
OC(Cn1cncn1)(Cn1cncn1)c1ccc(F)cc1F [Fluconazole, reference compound]	2 µg/mL
N=C(N)c1ccc2nc(Cc3nc4ccc(C(=N)N)cc4[nH]3)[nH]c2c1	> 100 µg/mL

# context switch: different molecule, same MIC
Ask | Entry under review: `CN1CCN(c2ccc3nc(-c4ccc5nc(-c6ccc(O)cc6)[nH]c5c4)[nH]c3c2)CC1` . Reported MIC?
Reply | 100 µg/mL
